Hey, just so you know, these numbers are from patent US20120035161A1.

experiment: Phospholipidosis assay (LipidTox); type: cell-based; settings: human
readout: fold induction at 48 h, 10 µM

molecule="O=CNCC(=O)NCCN1CCN(CCCN2c3ccccc3Sc3ccc(C(F)(F)F)cc32)CC1 [Compound 37b]" assay_result=12

----------
system: Serotonin (5-Hydroxytryptamine) 5-HT2, Non-Selective; assay: Assay 271600 radioligand binding, 5-HT2 non-selective; design: species or system Wistar Rat; conditions: 0.1 μM
Consider the following molecules and their measured % INHIBITION readings.
readout: % INHIBITION

molecule="CN(C)S(=O)(=O)c1ccc2c(c1)N(CCCN1CCN(CCN)CC1)c1ccccc1S2 [ICI-715]" target="Serotonin (5-Hydroxytryptamine) 5-HT2, Non-Selective" readout="% INHIBITION" assay_result=18%
molecule="NCC(=O)NCCN1CCN(CCCN2c3ccccc3Sc3ccc(C(F)(F)F)cc32)CC1 [ICI-735]" target="Serotonin (5-Hydroxytryptamine) 5-HT2, Non-Selective" readout="% INHIBITION" assay_result=62%
molecule="NCCCN1CCC(CCCN2c3ccccc3Sc3ccc(C(F)(F)F)cc32)CC1 [ICI-847]" target="Serotonin (5-Hydroxytryptamine) 5-HT2, Non-Selective" readout="% INHIBITION" assay_result=3%
molecule="FC(F)(F)c1ccc2c(c1)N(CCC1CCNCC1)c1ccccc1S2 [ICI-1007]" target="Serotonin (5-Hydroxytryptamine) 5-HT2, Non-Selective" readout="% INHIBITION" assay_result=51%
molecule="NCCN1CCC(CCN2c3ccccc3Sc3ccc(C(F)(F)F)cc32)CC1 [ICI-1008]" target="Serotonin (5-Hydroxytryptamine) 5-HT2, Non-Selective" readout="% INHIBITION" assay_result=38%
molecule="NCC(=O)NCCN1CCN(CCCCN2c3ccccc3Sc3ccc(C(F)(F)F)cc32)CC1 [ICI-954]" target="Serotonin (5-Hydroxytryptamine) 5-HT2, Non-Selective" readout="% INHIBITION" assay_result=21%
molecule="FC(F)(F)c1ccc2c(c1)N(CCCN1CCNCC1)c1ccccc1S2 [ICI-685]" target="Serotonin (5-Hydroxytryptamine) 5-HT2, Non-Selective" readout="% INHIBITION" assay_result=31%
molecule="FC(F)(F)c1ccc2c(c1)N(CCCC1CCNCC1)c1ccccc1S2 [ICI-824]" target="Serotonin (5-Hydroxytryptamine) 5-HT2, Non-Selective" readout="% INHIBITION" assay_result=28%
molecule="CNCC(=O)NCCN1CCC(CCCN2c3ccccc3Sc3ccc(C(F)(F)F)cc32)CC1 [ICI-849]" target="Serotonin (5-Hydroxytryptamine) 5-HT2, Non-Selective" readout="% INHIBITION" assay_result=15%
molecule="NCCN1CCN(CCCCN2c3ccccc3Sc3ccc(C(F)(F)F)cc32)CC1 [ICI-953]" target="Serotonin (5-Hydroxytryptamine) 5-HT2, Non-Selective" readout="% INHIBITION" assay_result=16%

----------
system: Serotonin (5-Hydroxytryptamine) 5-HT1, Non-Selective; assay: Assay 271000 radioligand binding, 5-HT1 non-selective; parameters: species or system Wistar Rat; settings: 10 μM
Would you please tag the item YES when its % INHIBITION is 20% or above, and NO when it is below?

chem_smiles=FC(F)(F)c1ccc2c(c1)N(CCC1CCNCC1)c1ccccc1S2 class=YES
chem_smiles=NCC(=O)NCCN1CCN(CCCCN2c3ccccc3Sc3ccc(C(F)(F)F)cc32)CC1 class=NO
chem_smiles=CNCC(=O)NCCN1CCC(CCCN2c3ccccc3Sc3ccc(C(F)(F)F)cc32)CC1 class=NO
chem_smiles=NCCCN1CCC(CCCN2c3ccccc3Sc3ccc(C(F)(F)F)cc32)CC1 class=NO
chem_smiles=FC(F)(F)c1ccc2c(c1)N(CCCC1CCNCC1)c1ccccc1S2 class=NO
chem_smiles=NCCN1CCC(CCN2c3ccccc3Sc3ccc(C(F)(F)F)cc32)CC1 class=NO
chem_smiles=NCC(=O)NCCN1CCN(CCCN2c3ccccc3Sc3ccc(C(F)(F)F)cc32)CC1 class=YES
chem_smiles=NCCN1CCN(CCCCN2c3ccccc3Sc3ccc(C(F)(F)F)cc32)CC1 class=NO
chem_smiles=FC(F)(F)c1ccc2c(c1)N(CCCN1CCNCC1)c1ccccc1S2 class=YES
chem_smiles=CN(C)S(=O)(=O)c1ccc2c(c1)N(CCCN1CCN(CCN)CC1)c1ccccc1S2 class=YES
